Source listed as ChEMBL document CHEMBL2150978.

- System: Liver
- ASSAY_NOTES: Clast in Sprague-Dawley rat liver assessed as 2'-C-methyl guanosine triphosphate level at 10 mg/kg, po up to 24 hrs by LC-MS/Ms analysis
- Assay type: ADME, organism-based
- Design: dose 10 mg/kg, route oral
- CONDITION_NOTES: in vivo
Returns one of Condition met or Condition not met; Condition met when Clast is >= 600 ng/g.

IN: Does the reported Clast for COc1nc(N)nc2c1ncn2[C@@H]1O[C@H](COP(=O)(N[C@@H](C)C(=O)OCC(C)(C)C)N[C@@H](C)C(=O)OCC(C)(C)C)[C@@H](O)[C@@]1(C)O (mixture of isomers) fall at or above the 600 ng/g mark?
OUT: Condition met

IN: What about this molecule? CCCCOC(=O)[C@H](C)NP(=O)(N[C@@H](C)C(=O)OCCCC)OC[C@H]1O[C@@H](n2cnc3c(OC)nc(N)nc32)[C@](C)(O)[C@@H]1O (mixture of isomers)
OUT: Condition met

IN: Please do the same for COc1nc(N)nc2c1ncn2[C@@H]1O[C@H](COP(=O)(N[C@H](C)C(=O)OCC(C)(C)C)N[C@H](C)C(=O)OCC(C)(C)C)[C@@H](O)[C@@]1(C)O (mixture of isomers) as well.
OUT: Condition not met

IN: Let us now turn to CCCCCOC(=O)[C@H](C)NP(=O)(N[C@@H](C)C(=O)OCCCCC)OC[C@H]1O[C@@H](n2cnc3c(OC)nc(N)nc32)[C@](C)(O)[C@@H]1O (mixture of isomers)
OUT: Condition not met

IN: Next record, please: CCC(C)OC(=O)[C@H](C)NP(=O)(N[C@@H](C)C(=O)OC(C)CC)OC[C@H]1O[C@@H](n2cnc3c(OC)nc(N)nc32)[C@](C)(O)[C@@H]1O (mixture of isomers)
OUT: Condition not met

* * *

- ASSAY_NOTES: Cytotoxicity against human HuH7 cells after 3 days
- Assay type: cell-based, Huh-7
So I've got a bunch of compounds here, and I need their CC50 at 72 h values.
The figure you give is taken to be in µM; do not add the unit.

IN: # query: CC50 at 72 h of entry COc1nc(N)nc2c1ncn2[C@@H]1O[C@H](COP(=O)(N[C@@H](CCSC)C(=O)OC2CCCCC2)N[C@@H](CCSC)C(=O)OC2CCCCC2)[C@@H](O)[C@@]1(C)O (mixture of isomers)
OUT: 51

IN: Please answer likewise for COc1nc(N)nc2c1ncn2[C@@H]1O[C@H](COP(=O)(N[C@H](C(=O)OCC(C)(C)C)c2ccccc2)N[C@H](C(=O)OCC(C)(C)C)c2ccccc2)[C@@H](O)[C@@]1(C)O (mixture of isomers)
OUT: 24

* * *

Would you kindly list log10(EC90) for each of these compounds?
- System: Hepatitis C virus
- ASSAY_NOTES: Antiviral activity against Hepatitis C virus subtype 1b Con1 infected in human Huh7 cells assessed as inhibition of HCV replicon-encoded Renilla luciferase reporter activity after 72 hrs by HCV replicon assay
- Type: functional, organism-based, Hepacivirus hominis
- CONDITION_NOTES: Con1, Huh-7, 72 h
Please note: log10 values; quantity EC90; unit nM.

IN: Notebook: pull reported log10(EC90) for Hepatitis C virus, entry COc1nc(N)nc2c1ncn2[C@@H]1O[C@H](COP(=O)(N[C@@H](CC(C)C)C(=O)OCC(C)(C)C)N[C@@H](CC(C)C)C(=O)OCC(C)(C)C)[C@@H](O)[C@@]1(C)O (mixture of isomers)
OUT: 3.38

IN: Next entry: COc1nc(N)nc2c1ncn2[C@@H]1O[C@H](COP(=O)(N[C@@H](C)C(=O)OCCC(C)(C)C)N[C@@H](C)C(=O)OCCC(C)(C)C)[C@@H](O)[C@@]1(C)O (mixture of isomers)
OUT: 1.95

IN: Same question, COc1nc(N)nc2c1ncn2[C@@H]1O[C@H](COP(=O)(N[C@@H](Cc2ccccc2)C(=O)OC2CCCCC2)N[C@@H](Cc2ccccc2)C(=O)OC2CCCCC2)[C@@H](O)[C@@]1(C)O (mixture of isomers) this time
OUT: 3.30

IN: Do the same for COC(=O)[C@@H]1CCCN1P(=O)(N[C@@H](C)C(=O)OCC(C)(C)C)OC[C@H]1O[C@@H](n2cnc3c(OC)nc(N)nc32)[C@](C)(O)[C@@H]1O (mixture of isomers) please
OUT: 3.34

IN: # iterate: COc1nc(N)nc2c1ncn2[C@@H]1O[C@H](COP(=O)(N[C@H](C(=O)OC2CCCCC2)c2ccccc2)N[C@H](C(=O)OC2CCCCC2)c2ccccc2)[C@@H](O)[C@@]1(C)O (mixture of isomers)
OUT: 3.26

IN: // next record CC[C@H](C)[C@H](NP(=O)(N[C@H](C(=O)OCC(C)(C)C)[C@@H](C)CC)OC[C@H]1O[C@@H](n2cnc3c(OC)nc(N)nc32)[C@](C)(O)[C@@H]1O)C(=O)OCC(C)(C)C (mixture of isomers)
OUT: 3.80

IN: What about COc1nc(N)nc2c1ncn2[C@@H]1O[C@H](COP(=O)(N[C@@H](Cc2ccccc2)C(=O)OCc2ccccc2)N[C@@H](Cc2ccccc2)C(=O)OCc2ccccc2)[C@@H](O)[C@@]1(C)O (mixture of isomers) ?
OUT: 3.13

IN: Also check COc1nc(N)nc2c1ncn2[C@@H]1O[C@H](COP(=O)(N[C@@H](C)C(=O)O[C@@H](C)c2ccccc2)N[C@@H](C)C(=O)O[C@@H](C)c2ccccc2)[C@@H](O)[C@@]1(C)O (mixture of isomers)
OUT: 3.23

IN: Next record, please: COc1nc(N)nc2c1ncn2[C@@H]1O[C@H](COP(=O)(N[C@H](C(=O)OC2CCCCC2)C(C)C)N[C@H](C(=O)OC2CCCCC2)C(C)C)[C@@H](O)[C@@]1(C)O (mixture of isomers)
OUT: 4.00

* * *

- Test system: Liver
- ASSAY_NOTES: Tmax in Sprague-Dawley rat liver assessed as 2'-C-methyl guanosine triphosphate level at 10 mg/kg, po up to 24 hrs by LC-MS/Ms analysis
- Assay type: ADME, organism-based
- Design: dose 10 mg/kg, route oral
- CONDITION_NOTES: in vivo
Could you please report measured Tmax for the items listed next?
Numbers only; they are read as h.

IN: Param item = COc1nc(N)nc2c1ncn2[C@@H]1O[C@H](COP(=O)(N[C@@H](C)C(=O)OCC(C)(C)C)N[C@@H](C)C(=O)OCC(C)(C)C)[C@@H](O)[C@@]1(C)O (mixture of isomers) ; retrieve measured Tmax.
OUT: 8

IN: Same read-out for COc1nc(N)nc2c1ncn2[C@@H]1O[C@H](COP(=O)(N[C@@H](C)C(=O)OC2Cc3ccccc3C2)N[C@@H](C)C(=O)OC2Cc3ccccc3C2)[C@@H](O)[C@@]1(C)O (mixture of isomers) ?
OUT: 24

IN: Cool, now CCC(C)OC(=O)[C@H](C)NP(=O)(N[C@@H](C)C(=O)OC(C)CC)OC[C@H]1O[C@@H](n2cnc3c(OC)nc(N)nc32)[C@](C)(O)[C@@H]1O (mixture of isomers)
OUT: 8

IN: Thanks! And COc1nc(N)nc2c1ncn2[C@@H]1O[C@H](COP(=O)(N[C@H](C)C(=O)OCC(C)(C)C)N[C@H](C)C(=O)OCC(C)(C)C)[C@@H](O)[C@@]1(C)O (mixture of isomers) ?
OUT: 8

IN: Can you check CCCCOC(=O)[C@H](C)NP(=O)(N[C@@H](C)C(=O)OCCCC)OC[C@H]1O[C@@H](n2cnc3c(OC)nc(N)nc32)[C@](C)(O)[C@@H]1O (mixture of isomers) next?
OUT: 8

IN: // repeat for COc1nc(N)nc2c1ncn2[C@@H]1O[C@H](COP(=O)(N[C@@H](C)C(=O)OCC(C)(C)C)Oc2cccc3ccccc23)[C@@H](O)[C@@]1(C)O (some centres undefined) and report
OUT: 8

IN: Cool, now COc1nc(N)nc2c1ncn2[C@@H]1O[C@H](COP(=O)(N[C@H](C(=O)OCc2ccccc2)C(C)C)N[C@H](C(=O)OCc2ccccc2)C(C)C)[C@@H](O)[C@@]1(C)O (mixture of isomers)
OUT: 4

IN: Try the compound COc1nc(N)nc2c1ncn2[C@@H]1O[C@H](COP(=O)(N[C@@H](C)C(=O)OC2CCCC2)N[C@@H](C)C(=O)OC2CCCC2)[C@@H](O)[C@@]1(C)O (mixture of isomers)
OUT: 8

IN: Continue with CCCCCOC(=O)[C@H](C)NP(=O)(N[C@@H](C)C(=O)OCCCCC)OC[C@H]1O[C@@H](n2cnc3c(OC)nc(N)nc32)[C@](C)(O)[C@@H]1O (mixture of isomers)
OUT: 8

* * *

- ASSAY_NOTES: Selectivity index, ratio of CC50 for human HuH7 cells to EC50 for Hepatitis C virus subtype 1b Con1
- Assay type: toxicity, cell-based, Huh-7
- CONDITION_NOTES: read-out: Ratio CC50/EC50
PARAMETER: selectivity ratio
Note: the reply should be a number with no unit written.

IN: Which selectivity ratio value is on record for CC[C@H](C)[C@H](NP(=O)(N[C@H](C(=O)OC1CCCCC1)[C@@H](C)CC)OC[C@H]1O[C@@H](n2cnc3c(OC)nc(N)nc32)[C@](C)(O)[C@@H]1O)C(=O)OC1CCCCC1 (mixture of isomers) ?
OUT: 4
